Data provenance is ChEMBL document CHEMBL1806473.

- Tested on: A549
- test: Cytotoxicity against human A549 cells
- Type: cell-based
result type: LC50

Study these solved cases before continuing.
compound	result type	data value
CC(C)C(/C=C/c1ccccc1)n1cc(/C=C/C(=O)NO)nn1 (centres undefined)	LC50	88.7 µM
O=C(/C=C/c1ccc(CN(CCO)CCc2c[nH]c3ccccc23)cc1)NO [DACINOSTAT]	LC50	94.6 µM
O=C(/C=C/c1cn(C(/C=C/c2ccccc2)Cc2ccccc2)nn1)NO (centres undefined)	LC50	64.6 µM

We next turn to a different compound, shown below.
Query :: Which LC50 is listed for CC(/C=C/c1ccccc1)n1cc(/C=C/C(=O)NO)nn1 (centres undefined) ?
Result :: > 100 µM

====

- Test system: HCT-116
- test: Cytotoxicity against human HCT116 cells
- Assay type: cell-based
result type: LC50 (µM)
Answers are plain numbers, in µM.

compound	LC50, µM
CC(C)C(/C=C/c1ccccc1)n1cc(/C=C/C(=O)NO)nn1 (centres undefined)	3.85
O=C(/C=C/c1ccc(CN(CCO)CCc2c[nH]c3ccccc23)cc1)NO	51.2
O=C(/C=C/c1cn(C(/C=C/c2ccccc2)Cc2ccccc2)nn1)NO (centres undefined)	5.97

Now turn to the next compound.
Query :: Form field: reported LC50 of CC(/C=C/c1ccccc1)n1cc(/C=C/C(=O)NO)nn1 (centres undefined)
Result :: 3.81

====

Assign LC50 to each entry below.
- Test system: ACHN
- test: Cytotoxicity against human ACHN cells
- Assay type: cell-based
Give bare numbers, in µM.

compound	unit of measure	LC50
CC(/C=C/c1ccccc1)n1cc(/C=C/C(=O)NO)nn1 (centres undefined)	µM	5.86

Provide the reported LC50 of each entry below, same order.
1. CC(C)C(/C=C/c1ccccc1)n1cc(/C=C/C(=O)NO)nn1 (centres undefined)
2. O=C(/C=C/c1ccc(CN(CCO)CCc2c[nH]c3ccccc23)cc1)NO [DACINOSTAT]
3. O=C(/C=C/c1cn(C(/C=C/c2ccccc2)Cc2ccccc2)nn1)NO (centres undefined)

Result ::
1. 71.1
2. 94.3
3. 13.7

====

- Tested on: MDA-MB-435
- test: Cytotoxicity against human MDA-MB-435 cells
- Assay type: cell-based
result type: LC50 (µM)
Give bare numbers, in µM.

The following molecules have reported results that may help.
molecule	unit of measure	LC50
CC(/C=C/c1ccccc1)n1cc(/C=C/C(=O)NO)nn1 (centres undefined)	µM	30.8
O=C(/C=C/c1ccc(CN(CCO)CCc2c[nH]c3ccccc23)cc1)NO	µM	28.8

Need LC50 for each of these molecules.
1. O=C(/C=C/c1cn(C(/C=C/c2ccccc2)Cc2ccccc2)nn1)NO (centres undefined)
2. CC(C)C(/C=C/c1ccccc1)n1cc(/C=C/C(=O)NO)nn1 (centres undefined)

Result ::
[15.7, 31.6]

====

- Tested on: A549
- test: Antiproliferative activity against human A549 cells by SRB assay
- Format: functional
Kindly supply the reported GI50 values for the records listed here.
Numbers only, in nM.

compound	unit of measure	GI50
CC(C)C(/C=C/c1ccccc1)n1cc(/C=C/C(=O)NO)nn1 (centres undefined)	nM	1330
O=C(/C=C/c1cn(C(/C=C/c2ccccc2)Cc2ccccc2)nn1)NO (centres undefined)	nM	1410
CC(/C=C/c1ccccc1)n1cc(/C=C/C(=O)NO)nn1 (centres undefined)	nM	1470

Now for a further compound.
Query :: Observed GI50 on A549 for O=C(/C=C/c1ccc(CN(CCO)CCc2c[nH]c3ccccc23)cc1)NO [DACINOSTAT] , please.
Result :: 1090
